- Target Entity: Prostaglandin G/H synthase 1 (Ovis aries)
- Sequence (P05979 whole entry): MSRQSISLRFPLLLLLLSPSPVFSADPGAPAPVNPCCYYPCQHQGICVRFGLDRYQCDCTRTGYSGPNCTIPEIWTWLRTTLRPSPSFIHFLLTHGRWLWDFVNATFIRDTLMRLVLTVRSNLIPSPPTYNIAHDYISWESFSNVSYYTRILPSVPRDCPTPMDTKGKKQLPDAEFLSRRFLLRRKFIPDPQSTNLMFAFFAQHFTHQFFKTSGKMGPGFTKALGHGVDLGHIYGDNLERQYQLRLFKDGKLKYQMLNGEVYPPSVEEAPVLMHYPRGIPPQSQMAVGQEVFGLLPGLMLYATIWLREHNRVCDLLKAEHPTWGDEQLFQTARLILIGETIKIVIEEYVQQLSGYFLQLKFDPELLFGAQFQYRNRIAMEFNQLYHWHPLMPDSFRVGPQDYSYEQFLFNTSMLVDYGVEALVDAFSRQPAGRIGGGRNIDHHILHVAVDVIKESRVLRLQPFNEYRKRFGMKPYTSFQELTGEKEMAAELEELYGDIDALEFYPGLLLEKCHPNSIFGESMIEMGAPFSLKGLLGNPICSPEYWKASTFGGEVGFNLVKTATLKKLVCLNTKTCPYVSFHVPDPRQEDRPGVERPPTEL
- Measurement Description: Inhibition of ovine COX1 assessed as reduction in PGH2-dervied PGF2alpha production using arachidonic acid substrate by enzyme immunoassay
pIC50: −log10 of the molar value.
Reported pIC50 values are given for each entry in this list.

Completed entries (count: 2):
Cc1ccc(-c2nc3ccccc3n2CC(=O)NN)o1 = < 4.30
NNC(=O)Cn1c(-c2ccc(CNc3ccncc3)o2)nc2ccccc21 = < 4.30

Let us examine a further case.
Inquiry: Quickly give me recorded pIC50 for `Nn1c(Cn2c(-c3ccco3)nc3ccccc32)n[nH]c1=S`
Reply text: < 4.30
